Test: solvent given as SMILES
Settings: in C1CCOC1
Listing: solvation free energy, 298 K of selected compounds
State the result as a value with its unit after it.

Sample answers from the record:
- CCC1CCCCC1: -5.38 kcal/mol
- c1ccc2c(c1)ccc1ccccc12: -11.5 kcal/mol
- COc1ccccc1C(=O)O: -11.8 kcal/mol

Record `O=C(O)c1ccc(O)cc1` , field solvation free energy, 298 K: -11.4 kcal/mol

Record `CCCCCl` , field solvation free energy, 298 K: -4.57 kcal/mol

Record `[HH]` , field solvation free energy, 298 K: 1.46 kcal/mol

Record `Cc1cccc(C(=O)O)c1` , field solvation free energy, 298 K: -10.5 kcal/mol

Record `CCOc1ccc(NC(C)=O)cc1` , field solvation free energy, 298 K: -13.7 kcal/mol

Record `CC1CCCCC1` , field solvation free energy, 298 K: -4.67 kcal/mol

Record `O=C(O)c1ccccc1O` , field solvation free energy, 298 K: -10.8 kcal/mol

Record `CC(C)CCO` , field solvation free energy, 298 K: -6.32 kcal/mol

Record `CC(C)(C)Br` , field solvation free energy, 298 K: -3.87 kcal/mol

Record `OC1CCCCC1` , field solvation free energy, 298 K: -7.24 kcal/mol

Record `C1COCCO1` , field solvation free energy, 298 K: -5.11 kcal/mol

Record `ClC(Cl)Cl` , field solvation free energy, 298 K: -5.13 kcal/mol

Record `C(=Cc1ccccc1)c1ccccc1` , field solvation free energy, 298 K: -11.8 kcal/mol

* * *

Test: solvent given as SMILES
Details: in CN(C)C=O
Threshold rule: solvation free energy, 298 K greater than or equal to -4 kcal/mol is T; below that, F.

Below, 5 compounds whose answers are already recorded.
- CCCCCCCCCCCCCCCCCCCCCCCCCCC: F
- CCC#N: F
- CCOC(C)(C)C: T
- O=C(O)c1ccc(Br)cc1: F
- CCC(C)(C)C: T

Could you now look at the following compound, please?
Query :: Reported solvation free energy, 298 K reaches at least -4 kcal/mol for `CCC` ?
Result :: T

* * *

Test: solvent given as SMILES
Conditions: in Clc1ccccc1
Could you please mark Condition met for values of solvation free energy, 298 K below -20 kJ/mol and Condition not met for values at or above it?

Below, 8 molecules whose answers are already recorded.
* CCC | Condition not met
* CC(C)(C)Br | Condition not met
* C(=Cc1ccccc1)c1ccccc1 | Condition met
* [HH] | Condition not met
* C1COCCO1 | Condition met
* CCC1CCCCC1 | Condition met
* CC(C)CCO | Condition met
* CCCCCl | Condition not met

Could you now look at the following molecule, please?
Query :: # strict comparison: is reported solvation free energy, 298 K < -20 kJ/mol? input = `CCN(CC)CC`
Result :: Condition not met

* * *

Listing: solvation free energy, 298 K of selected compounds
Experiment: solvent given as SMILES
Conditions: in CC(=O)c1ccccc1
I only need the number, in kcal/mol, no unit after it.

Record `C=CC(=C)C` , field solvation free energy, 298 K: -2.93

Record `CCC1CCCCC1` , field solvation free energy, 298 K: -4.54

Record `C1COCCO1` , field solvation free energy, 298 K: -5.03

Record `CCN(CC)CC` , field solvation free energy, 298 K: -3.93
